Where these numbers come from: patent US8859541B2

# experimentalTarget: cIAP1 BIR3 (Homo sapiens, UniProt Q13490)
# Construct: covering amino acids 256 to 363; cIAP1 BIR3
# Sequence (Q13490 256-363): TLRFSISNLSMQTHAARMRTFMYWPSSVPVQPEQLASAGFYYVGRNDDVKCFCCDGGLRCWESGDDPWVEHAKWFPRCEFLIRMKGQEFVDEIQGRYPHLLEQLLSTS
# test: cIAP1 BIR3 binding assay (DELFIA), displacement of SMAC peptide
# experimentalSetup: GST-fusion BIR3 domain (aa 256 to 363) 10 nM, SMAC peptide 10 nM; activity of the (S)-isomers
# Method: Biological Methods XIAP BIR3 and cIAP1 BIR3 Binding Assays (DELFIA) Peptide […]-Lys(Biotin), representing the N-terminus of mature human SMAC (SMAC peptide), was used as interaction partner in the protein-peptide interaction assay. BIR3 domains (10 nM) were incubated with SMAC peptide (10 nM) in Assay Buffer (50 mM Tris, 120 mM NaCl, 0.1% BSA, 1 mM DTT, 0.05% TritonX100) for one hour at room temperature in the presence of inhibitiory compounds. […]
pIC50: −log10 of the molar value.
reportedEndpoint: pIC50

compound | experimentalTarget | recordedMeasurement
CNC(C)C(=O)Nc1ccc(-c2c(C)nc3ccccn23)c(C#Cc2ccc3cnn(C)c3c2)n1 (centres unmarked) | cIAP1 BIR3 (Homo sapiens, UniProt Q13490) | 9.00

a. CNC(C)C(=O)Nc1ccc(-c2c(C)nc3cc(F)ccn23)c(C#Cc2ccc3ncccc3c2)n1 (centres unmarked)
b. CNC(C)C(=O)Nc1cc(C(F)(F)F)cc(C#Cc2ccccc2)n1 (centres unmarked)
c. CNC(C)C(=O)Nc1ccc(-c2c(C)nc3ccccn23)c(C#Cc2cnc3ccccn23)n1 (centres unmarked)
d. CNC(C)C(=O)Nc1ccc(-c2c(C)ncn2C)c(C#Cc2ccccc2)n1 (centres unmarked)
In this exercise, place the 4 compounds in ascending sequence of their recorded pIC50. Submit the labels in the order that the ranking request calls for.
b, d, c, a
(b: 5.31, d: 8.40, c: 8.70, a: 9.00)

---

# experimentalTarget: XIAP BIR3 (Homo sapiens, UniProt P98170)
# Construct: covering amino acids 241 to 356; XIAP BIR3
# Sequence (P98170 241-356): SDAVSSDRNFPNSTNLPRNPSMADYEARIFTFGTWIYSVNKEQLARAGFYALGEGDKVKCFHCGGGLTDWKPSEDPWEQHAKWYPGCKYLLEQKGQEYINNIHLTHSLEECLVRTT
# test: XIAP BIR3 binding assay (DELFIA), displacement of SMAC peptide
# experimentalSetup: GST-fusion BIR3 domain (aa 241 to 356) 10 nM, SMAC peptide 10 nM; activity of the (S)-isomers
pIC50: −log10 of the molar value.
reportedEndpoint: pIC50

Please review the following examples before continuing.
compound | experimentalTarget | pIC50
CNC(C)C(=O)Nc1ccc(-c2ccc(C(=O)OC)nc2)c(C#Cc2cc(F)cc(F)c2)n1 (stereo not drawn) | XIAP BIR3 (Homo sapiens, UniProt P98170) | 6.49
CNC(C)C(=O)Nc1ccc(Cc2ccccc2)c(C#Cc2ccccc2)n1 (stereo not drawn) | XIAP BIR3 (Homo sapiens, UniProt P98170) | 6.49
CC(N)C(=O)Nc1cc2ccccc2c(C#Cc2ccccc2)n1 (stereo not drawn) | XIAP BIR3 (Homo sapiens, UniProt P98170) | 6.15
CNC(C)C(=O)Nc1ccc(-c2c(C)nc(N3CCCC3)nc2C)c(C#Cc2ccc3c(ccc(=O)n3C)c2)n1 (stereo not drawn) | XIAP BIR3 (Homo sapiens, UniProt P98170) | 5.62

I. Cc1noc(C)c1-c1ccc(NC(=O)C(C)NC(C)C)nc1C#Cc1ccccc1 (stereo not drawn)
II. COc1cccc(C#Cc2cccc(NC(=O)C(C)N)n2)c1 (stereo not drawn)
III. CNC(C)C(=O)Nc1ccc(-c2cnc(C(=O)OC)nc2)c(C#Cc2ccccc2)n1 (stereo not drawn)
In this exercise, place the 3 compounds in ascending sequence of their recorded pIC50. Submit the labels in the order that the ranking request calls for.
II, I, III

---

# experimentalTarget: XIAP BIR3 (Homo sapiens)
# Construct: covering amino acids 241 to 356; XIAP BIR3
# test: XIAP BIR3 binding assay (DELFIA), displacement of SMAC peptide
# experimentalSetup: GST-fusion BIR3 domain (aa 241 to 356) 10 nM, SMAC peptide 10 nM; activity of the (S)-isomers
reportedEndpoint: IC50 (nM)

Please review the following examples before continuing.
molecule | IC50 / nM
CC(N)C(=O)Nc1cccc(C#Cc2cc(F)cc(F)c2)n1 (centres unmarked) | 2910
CNC(C)C(=O)Nc1ccc(-c2ccc3c(c2)C(=O)c2ccccc2-3)c(C#Cc2ccccc2)n1 (centres unmarked) | 337
CCCNC(C)C(=O)Nc1ccc(-c2c(C)noc2C)c(C#Cc2ccccc2)n1 (centres unmarked) | 502

a. CNC(C)C(=O)Nc1ccc(-c2c(C)nc(N3CCOCC3)nc2C)c(C#Cc2ccc3c(c2)CC(=O)N3C)n1 (centres unmarked)
b. CNC(C)C(=O)Nc1ccc(-c2c(C)nc3cc(F)ccn23)c(C#Cc2ccc3ncccc3c2)n1 (centres unmarked)
Between these two entries, a and b , state which has the higher IC50. Selection: enter the item's label.
a
(a: 1450 nM, b: 180 nM)

---

# experimentalTarget: XIAP BIR3 (Homo sapiens)
# Construct: covering amino acids 241 to 356; XIAP BIR3
# test: XIAP BIR3 binding assay (DELFIA), displacement of SMAC peptide
# experimentalSetup: GST-fusion BIR3 domain (aa 241 to 356) 10 nM, SMAC peptide 10 nM; activity of the (S)-isomers
reportedEndpoint: IC50 (nM)

Please review the following examples before continuing.
compound | reportedEndpoint | recordedMeasurement
CNC(C)C(=O)Nc1ccc(-c2c(-c3ccccc3)noc2C)c(C#Cc2ccc3ccccc3c2)n1 (stereo not drawn) | IC50 | 3180
CNC(C)C(=O)Nc1ccc(-c2cncnc2)c(C#Cc2ccc3c(c2)OCCCO3)n1 (stereo not drawn) | IC50 | 259
CNC(C)C(=O)Nc1ccc(-c2c(C)nc3ccccn23)c(C#Cc2ccc3c(c2)CCO3)n1 (stereo not drawn) | IC50 | 110
CNC(C)C(=O)Nc1ccc(-c2c(C)nc3ccccn23)c(C#Cc2ccc(-c3ccncc3)cc2)n1 (stereo not drawn) | IC50 | 267
CNC(C)C(=O)Nc1ccc(-c2c(C)nc3ccccn23)c(C#Cc2ccc3c(ccc(=O)n3C)c2)n1 (stereo not drawn) | IC50 | 579

I. Cc1noc(C)c1-c1ccc(NC(=O)C(C)N)nc1C#Cc1ccccc1 (stereo not drawn)
II. CNC(C)C(=O)Nc1ccc(-c2cccc3cnccc23)c(C#Cc2ccc(C)cc2)n1 (stereo not drawn)
Between these two entries, I and II , state which has the higher IC50. Selection: enter the item's label.
II

---

# experimentalTarget: cIAP1 BIR3 (Homo sapiens, UniProt Q13490)
# Construct: covering amino acids 256 to 363; cIAP1 BIR3
# test: cIAP1 BIR3 binding assay (DELFIA), displacement of SMAC peptide
# experimentalSetup: GST-fusion BIR3 domain (aa 256 to 363) 10 nM, SMAC peptide 10 nM; activity of the (S)-isomers
# Protocol: Biological Methods XIAP BIR3 and cIAP1 BIR3 Binding Assays (DELFIA) Peptide […]-Lys(Biotin), representing the N-terminus of mature human SMAC (SMAC peptide), was used as interaction partner in the protein-peptide interaction assay. BIR3 domains (10 nM) were incubated with SMAC peptide (10 nM) in Assay Buffer (50 mM Tris, 120 mM NaCl, 0.1% BSA, 1 mM DTT, 0.05% TritonX100) for one hour at room temperature in the presence of inhibitiory compounds. […]
reportedEndpoint: IC50 (nM)

1. CNC(C)C(=O)Nc1ccc(-c2c(C)nc(N3CCCC3)nc2C)c(C#Cc2ccc3c(ccc(=O)n3C)c2)n1 (stereo not shown)
2. CNC(C)C(=O)Nc1ccc(-c2cnc(N3CCOCC3)nc2)c(C#Cc2ccccc2)n1 (stereo not shown)
3. CC(N)C(=O)Nc1cc2ccccc2c(C#Cc2cc(F)cc(F)c2)n1 (stereo not shown)
4. CNC(C)C(=O)Nc1ccc(-c2c(C)nc3ccccn23)c(C#Cc2ccc3c(c2)CCO3)n1 (stereo not shown)
// rank the listed compounds by IC50, lowest value first Submit the labels in the order that the ranking request calls for.
1, 4, 2, 3

---

# experimentalTarget: XIAP BIR3 (Homo sapiens, UniProt P98170)
# Construct: covering amino acids 241 to 356; XIAP BIR3
# test: XIAP BIR3 binding assay (DELFIA), displacement of SMAC peptide
# experimentalSetup: GST-fusion BIR3 domain (aa 241 to 356) 10 nM, SMAC peptide 10 nM; activity of the (S)-isomers
reportedEndpoint: IC50 (nM)

compound | IC50 (nM)
CNC(C)C(=O)Nc1ccc(-c2c(C)nc3ccccn23)c(C#Cc2ccc3nccn3c2)n1 (centres unmarked) | 212
CNC(C)C(=O)Nc1ccc(-c2cncnc2)c(C#Cc2ccc3[nH]cnc3c2)n1 (centres unmarked) | 787
CNC(C)C(=O)Nc1ccc(-c2c(C)nc(N3CCOCC3)nc2C)c(C#Cc2ccc3c(ccc(=O)n3C)c2)n1 (centres unmarked) | 1480
CNC(C)C(=O)Nc1ccc(-c2c(C)nc3ccccn23)c(C#Cc2ccc3oc(=O)n(C)c3c2)n1 (centres unmarked) | 175

A. CC(N)C(=O)Nc1cccc(C#CCc2ccccc2)n1 (centres unmarked)
B. CNC(C)C(=O)Nc1ccc(-c2c(C)nc3ccccn23)c(C#Cc2ccc3c(c2)OCC(=O)N3C)n1 (centres unmarked)
Field: lower recorded IC50 (choose A or B ) Selection: enter the item's label.
B
